meta.source: patent US20260234276A1

Molecular target: CCR8 SNAP-tag (human, UniProt P51685 1-355, SNAP-tag labelled with Lumi4-Terbium)
Experiment: cell-based or functional assay
recorded metric: % of internalization at 1 µg/ml mAb (HTRF) (%)

>>> reported_measurement("Ref #4 (antibody, human IgG1, V domains shown) VH: EVQLVESGGGLVQPGGSLKLSCAASGFTFNTYAMNWVRQASGKGLEWVARIRSKANNYATYYADSVKDRFTISRDDSKNTLYLQMNNLKTEDTAVYYCVRDRSRGEDYAMDYWGQGTLVTVSS VL: DIVMTQSPLSLPVTPGEPASISCRSSKSLLHSNANTYLYWFLQKPGQSPQLLIYRMSNLASGVPDRFSGSGSGTAFTLKISRVEAEDVGVYYCMQHLEYPFTFGQGTKLEIK")
95
>>> reported_measurement("Ref #1 (antibody, human IgG1, V domains shown, benchmark from WO 2021/260210; human IgG1, produced in CHO; also called TPP-21360) VH: EVQLLESGGGLVQPGGSLRLSCAASGFTFSSYGMHWVRQAPGKGLEWVSAINWNGGSTGYADSVKGRFTISRDNSKNTLYLQMNSLRAEDTAVYYCARGHHSGYDGRFFDYWGQGTLVTVSS VL: QSVLTQPPSVSGAPGQRVTISCTGSSSNIGAGYNVHWYQQLPGTAPKLLIYTNNRRPSGVPDRFSGSKSGTSASLAISGLRSEDEADYYCAAWDASLSGWVFGGGTKLTVL")
126
>>> reported_measurement("3-79 (antibody, human IgG1, kappa, V domains shown, humanized, human IgG1 kappa) VH: EVQLLESGGGLVQPGGSLRLSCAASGFTFNAYAMNWVRQAPGKGLEWVARIRSKSNDYATYYGDSVKGRFTISRDNSKNTLYLQMNSLRAEDTAVYYCVRGREAYYRYDGGYYAMDVWGQGTTVTVSS VL: DIVMTQSPLSLPVTPGEPASISCRSSKSLLHSNGNTYLYWFLQKPGQSPQLLIYRVSNLASGVPDRFSGSGSGTDFTLKISRVEAEDVGVYYCMQHREYPFTFGQGTKLEIKR")
139
